assay.info: Toxicity liver stage against HepG2, at 10uM
Type: cell-based
Set-up: test concentration 10 uM, cell line HepG2-A16-CD81EGFP
conditions: human, HepG2-A16-CD81EGFP cells; read-out: INHIBITION
# reported cytotoxicity at 10 µM; entries follow

Return reported cytotoxicity at 10 µM; argument: Cc1nc2n(n1)CC(NCc1ccccc1OCC(=O)N(C)C)CC2 (stereo unspecified)
7.61%

Others:
Return reported cytotoxicity at 10 µM; argument: Cc1ccc(C(=O)N2CCOCC3(CCN(C4CCOCC4)C3)C2)o1 (stereo unspecified)
-0.152%

What would you report for `CN(C)CCOC[C@H]1CC[C@H]2[C@H](CCN2C(=O)c2ccoc2)O1` ?
-81.5%

What would you report for CC(CCc1ccccc1F)C(=O)NS(=O)(=O)N(C)C(C)C (stereo unspecified) ?
10.6%

What would you report for CCCN(CC1COc2ccccc2O1)C(=O)c1ncoc1CC (stereo unspecified) ?
-42.2%

What would you report for CCCC(=O)NCC(=O)NC(c1ccc(Cl)cc1)C(F)(F)F (stereo unspecified) ?
-3.63%

What would you report for O=C(Nc1ccccc1OC1CCOC1)c1ccon1 (stereo unspecified) ?
-0.238%

What would you report for `COc1cc(NCc2ccccc2-n2cncn2)nc(N)n1` ?
-11%

What would you report for `O=C(CSCC1CC1)N1CCCN(c2ccc(F)cc2)CC1` ?
-4.43%

What would you report for `CCc1nn(-c2cc(Oc3cccc(C)c3)nc(C)n2)c(N)c1C#N` ?
-9.8%

What would you report for `CCc1nnsc1C(=O)N1CCCN(Cc2cnn(CC)c2)CC1` ?
-1.76%

###

assay.info: Toxicity liver stage against HepG2, at 10uM
Assay type: cell-based
Parameters: test concentration 10 uM, cell line HepG2-A16-CD81EGFP
conditions: human, HepG2-A16-CD81EGFP cells; read-out: INHIBITION
measured.parameter: cytotoxicity at 10 µM (%)
Value expressed in %; do not type the unit.

These recorded examples may help you get a feel for the data.
Return reported cytotoxicity at 10 µM; argument: `CN1CCO[C@@H]2CN(C(=O)Cc3cccs3)CC[C@@H]2C1`
-103

What would you report for `Cc1cccc(CN2C(=O)CCC23CCN(C(=O)N2CCCC2)CC3)n1` ?
4.56

What would you report for Cc1cc(C)c2nc(CN(C)C(C)c3ccncn3)cc(O)c2c1 (stereo unspecified) ?
4.11

What would you report for C=Cc1ccc(C(=O)N2CCCC(Nc3ccc(F)cc3)C2)cc1 (stereo unspecified) ?
-22.1

What would you report for `CCn1cnnc1CNC(=O)c1cc(Cl)ccc1I` ?
-5.98

Here is the next item to consider.
Return reported cytotoxicity at 10 µM; argument: `COC(=O)CCNC(=O)c1ccc(NC(=O)N(C)CC(C)(C)C)cc1`
8.01

###

# reported cytotoxicity at 10 µM; entries follow
assay.info: Toxicity liver stage against HepG2, at 10uM
Type: cell-based
Parameters: test concentration 10 uM, cell line HepG2-A16-CD81EGFP
conditions: human, HepG2-A16-CD81EGFP cells; read-out: INHIBITION
Value expressed in %; do not type the unit.

These recorded examples may help you get a feel for the data.
Return reported cytotoxicity at 10 µM; argument: `CCn1ccnc1CN1CCN(CCOc2ccccc2C#N)CC1`
-8.21

What would you report for `Cc1nc2c(c(N(C)Cc3ccccc3-n3cccn3)n1)CCNCC2` ?
-11.2

What would you report for `Cc1n[nH]c(C)c1S(=O)(=O)N(C)Cc1nn(C)c(Cl)c1Cl` ?
0.303

What would you report for CCC(C)c1ccc(NC(=O)C2CCN(C(=O)COC)CC2)cc1 (centres undefined) ?
-3.16

What would you report for `COc1ccc(OCCN2CCCN(Cc3noc(C)n3)CC2)cc1` ?
-6.12

What would you report for Cc1cnc(Cn2cc(-c3cccc(C(C)N(C)C)c3)nn2)cn1 (centres undefined) ?
-0.807

What would you report for `CC(C)N(C)Cc1ccccc1CNc1ccc2nncn2n1` ?
0.425

What would you report for CN1CC2(CCCN(Cc3nnc(-c4ccco4)o3)CC2)OC1=O (centres undefined) ?
-6.12

What would you report for O=C1CC(c2ccc3ccccc3n2)c2c(n[nH]c2C2CCC2)N1 (centres undefined) ?
-6.43

What would you report for CNC(=O)c1ccc(C2CN(C(=O)c3cnn(C)c3)CCO2)nc1 (centres undefined) ?
-24.2

Others:
Return reported cytotoxicity at 10 µM; argument: `O=C(O)[C@@H]1CN(C(=O)c2ccc3[nH]nnc3c2)C[C@H]1c1cccc(F)c1`
-8.66

What would you report for CCC1COCCN1C(=O)CNC(=O)c1ccc2c(c1)CCC2 (centres undefined) ?
8.08

What would you report for `Cc1sc(NC(=O)CCC(=O)O)c(C(N)=O)c1-c1ccc(Cl)cc1Cl` ?
15.6

What would you report for `CCOC(=O)c1ccc(S(=O)(=O)NCc2cccnc2N(C)C)cc1` ?
32.1

What would you report for CC(c1ccc(F)cc1F)N1CCN(CCC(=O)O)CC1 (centres undefined) ?
-3.6

###

# reported cytotoxicity at 10 µM; entries follow
assay.info: Toxicity liver stage against HepG2, at 10uM
Type: cell-based
Set-up: test concentration 10 uM, cell line HepG2-A16-CD81EGFP
conditions: human, HepG2-A16-CD81EGFP cells; read-out: INHIBITION
Value expressed in %; do not type the unit.

These recorded examples may help you get a feel for the data.
Return reported cytotoxicity at 10 µM; argument: `O=S(=O)(NCCc1cn2ccccc2n1)N1CCOCC1`
-3.98

What would you report for `CN(C)CCO[C@@H]1CC[C@H]2[C@H]1OCCN2C(=O)c1ccc(F)cc1` ?
-7.1

What would you report for Cc1cc(CSC2CCCN(c3cnn(C)c3)C2=O)no1 (stereo unspecified) ?
29.7

What would you report for `c1ccc(-c2noc(C3CCN(CCn4cccn4)CC3)n2)cc1` ?
2.86

What would you report for `COC(=O)c1cccc(S(=O)(=O)Nc2ncc(C)s2)c1` ?
0.158

Others:
Return reported cytotoxicity at 10 µM; argument: CC(=O)C1(c2ccccc2)CCN(C(=O)C2CNCCO2)CC1 (stereo unspecified)
-3.73

What would you report for `Cn1ccc(CN2CCC(CC(=O)NC3CCCC3)CC2)cc1=O` ?
-16.8

###

assay.info: Toxicity liver stage against HepG2, at 10uM
Type: cell-based
Set-up: test concentration 10 uM, cell line HepG2-A16-CD81EGFP
conditions: human, HepG2-A16-CD81EGFP cells; read-out: INHIBITION
measured.parameter: cytotoxicity at 10 µM (%)
Value expressed in %; do not type the unit.

These recorded examples may help you get a feel for the data.
Return reported cytotoxicity at 10 µM; argument: `O=C(NCCN1CCOCC1)c1cnc(-c2ccccc2F)s1`
0.277

What would you report for Cc1cc(NC(=O)NC(C)CO)ccc1OCC(F)(F)F (stereo unspecified) ?
5.2

What would you report for `Cc1nc(CN2C[C@@H]3CN(C(=O)c4ccncc4)C[C@@H]3C2)cs1` ?
-108

What would you report for NC(=O)C1CCCN1Cc1cccc(NC(=O)c2cccs2)c1 (stereo unspecified) ?
-12.7

What would you report for `CN(C)CCCNC(=O)c1ccc(N(C)S(C)(=O)=O)cc1Cl` ?
-6.3

What would you report for CC(C)NC(=O)C(C)NC(=O)N1CCN(c2ccc(Cl)cc2)CC1 (stereo unspecified) ?
-3.6

What would you report for `COc1nn(C)c2c1CCCN(C(=O)c1ccc3c(c1)OCO3)C2` ?
13.1

What would you report for `COC(=O)[C@@H](NC(=O)c1snnc1-c1ccc(OC)cc1)C(C)C` ?
4.96

What would you report for `Cc1nc(CNc2ncc(Br)cn2)n[nH]1` ?
-3.47

What would you report for `O=C(Nc1nc2c(s1)CCC2)c1cccnc1N1CCOCC1` ?
8.5

Here is the next item to consider.
Return reported cytotoxicity at 10 µM; argument: `Cc1noc(C(C)C)c1C(=O)NCc1cccc(N(C)C)c1`
-1.91

###

# reported cytotoxicity at 10 µM; entries follow
assay.info: Toxicity liver stage against HepG2, at 10uM
Format: cell-based
Design: test concentration 10 uM, cell line HepG2-A16-CD81EGFP
conditions: human, HepG2-A16-CD81EGFP cells; read-out: INHIBITION
Value expressed in %; do not type the unit.

These recorded examples may help you get a feel for the data.
Return reported cytotoxicity at 10 µM; argument: `CC(C)(C)c1nc(CN2CCc3onc(-c4cccc(F)c4)c3C2)no1`
6.2

What would you report for Cc1cc(CNC2CCCN(c3cccnn3)C2)no1 (centres undefined) ?
-15

What would you report for `COC(=O)c1cccc(C(=O)N(C)Cc2cccc(F)c2)c1` ?
5.75

What would you report for CCc1ccccc1OCCCN(C)C(=O)C1CCCN1C(N)=O (centres undefined) ?
0.369

What would you report for `CCOC(=O)Cn1cccc(S(=O)(=O)N2CCCC2)c1=O` ?
13.4

Others:
Return reported cytotoxicity at 10 µM; argument: `CCc1nc2c(c(NC3CC3)n1)CCN(C(=O)Cc1nonc1C)CC2`
2.8

What would you report for `CC(C)n1c2ccccc2c2c1cc(C(=O)N(C)C)n2C` ?
-85.4

What would you report for `Cc1oncc1C(=O)N1CC[C@H]2[C@@H]1CCC(=O)N2c1cccnc1` ?
-76.3

What would you report for `CNc1nccc(-c2cnc3sc(C)c(C)n3c2=O)n1` ?
-2.78

What would you report for `OCC1(NCc2cccc(-n3cccn3)c2)CCOCC1` ?
-139

What would you report for Clc1cccc(C(CNCc2ccccn2)N2CCOCC2)c1 (centres undefined) ?
-12
